- Assay Procedure: ATG_SREBP_CIS: Attagene CIS-FACTORIAL HepG2 Assay for human Sterol Regulatory Element Binding (SREBP) (AID 2282962)
- Assay Conditions: HepG2 Attagene cis-factorial SREBP reporter, mRNA; actives raise or lower the signal
Calls of active or inactive are those of the source. Rule for the calls: active = hit-call score of the fitted dose curve at least 0.9, where 1 is the maximum; inactive = score below 0.9.
Possible outcomes: YES (active), NO (inactive)

{"Compound": "CCCCCc1ccc(Cl)cc1", "Class": "NO"}
{"Compound": "CC(C)c1ccc2c(C(C)C)cc(C(C)C)c(S(=O)(=O)O)c2c1", "Class": "YES"}
{"Compound": "O=C1C(N(CO)C(=O)NCO)N(CO)C(=O)N1CO (stereo not given)", "Class": "NO"}
{"Compound": "O=C(Cl)c1cc(C(=O)Cl)cc(C(=O)Cl)c1", "Class": "NO"}
{"Compound": "Cc1ccc([N+](=O)[O-])cc1S(=O)(=O)O", "Class": "NO"}
{"Compound": "COc1ccc(-c2coc3cc(O)ccc3c2=O)cc1", "Class": "NO"}
{"Compound": "CO[Si](CCC1CCC2OC2C1)(OC)OC (stereo not given)", "Class": "NO"}
{"Compound": "Nc1ccc(Cl)cc1Cl", "Class": "NO"}
{"Compound": "OCCCS", "Class": "NO"}
{"Compound": "CCN(CC)c1ccc(C(=O)c2ccccc2C(=O)O)c(O)c1", "Class": "NO"}
{"Compound": "CCCCCCCCO[C@@H]1O[C@H](CO)[C@@H](O)[C@H](O)[C@H]1O", "Class": "NO"}
{"Compound": "CCCCCCCCCCCCCCCC(=O)OCC", "Class": "NO"}
{"Compound": "CC1(C)O[C@@H]2C[C@H]3[C@@H]4C[C@H](F)C5=CC(=O)CC[C@]5(C)[C@H]4[C@@H](O)C[C@]3(C)[C@]2(C(=O)CO)O1", "Class": "NO"}
{"Compound": "C=C[Si](C)(C)O[Si](C)(C)C=C", "Class": "NO"}
{"Compound": "c1ccc(CCCc2ccncc2)cc1", "Class": "NO"}
{"Compound": "CC(C)(C)c1ccc(OC(=O)c2ccccc2O)cc1", "Class": "NO"}
{"Compound": "Cc1ccc(C(C)c2ccc(C)c(C)c2)cc1C", "Class": "YES"}
{"Compound": "CC1=CC[C@H](C(C)C)C=C1", "Class": "NO"}
{"Compound": "C[C@]12CCC(=O)C=C1CC[C@@H]1[C@@H]2C(=O)C[C@@]2(C)[C@H]1CC[C@]2(O)C(=O)CO", "Class": "NO"}
{"Compound": "O=S(=O)(O)CC(O)CCl (stereo not given)", "Class": "NO"}

* * *

- Assay Procedure: ATG_AP_1_CIS: Attagene CIS-FACTORIAL HepG2 Assay for human Activator Protein 1 (AP-1) (AID 2282931)
- Assay Conditions: HepG2 Attagene cis-factorial AP-1 reporter mRNA; actives raise or lower the signal
Activity calls are given as the source filed them. The calls were made as follows: active = hit-call score of the fitted dose curve at least 0.9, where 1 is the maximum; inactive = score below 0.9.
Labels: active, inactive

{"Molecule": "O=C(O)c1cc(Cl)cc([N+](=O)[O-])c1Cl", "Class": "inactive"}
{"Molecule": "COc1ccc2nc(N)sc2c1", "Class": "inactive"}
{"Molecule": "CNC(=S)NN", "Class": "inactive"}
{"Molecule": "CC/C=C\\CCOC(=O)CCCCC", "Class": "inactive"}
{"Molecule": "C[Si](C)O[Si](C)(C)O[Si](C)(C)O[Si](C)C", "Class": "inactive"}
{"Molecule": "Cc1cc(C)c(C)cc1C", "Class": "inactive"}
{"Molecule": "C[Si](C)(CCCN)O[Si](C)(C)CCCN", "Class": "inactive"}
{"Molecule": "C[C@]12CCC(=O)C=C1CC[C@@H]1[C@@H]2C(=O)C[C@@]2(C)[C@H]1CC[C@]2(O)C(=O)CO", "Class": "inactive"}
{"Molecule": "CC(=O)[C@@]1(O)CC[C@H]2[C@@H]3C[C@H](C)C4=CC(=O)C=C[C@]4(C)[C@@]3(F)[C@@H](O)C[C@@]21C", "Class": "inactive"}
{"Molecule": "Cc1ccc(C(C)(C)C)cc1", "Class": "inactive"}
{"Molecule": "O=C1CCCCCN1SSN1CCCCCC1=O", "Class": "inactive"}
{"Molecule": "CC(=O)OCC(=O)[C@@]12N=C(C)O[C@@H]1C[C@H]1[C@@H]3CCC4=CC(=O)C=C[C@]4(C)[C@H]3[C@@H](O)C[C@@]12C", "Class": "inactive"}
{"Molecule": "CC(C)(C)C(=O)C=Cc1ccc(Cl)cc1", "Class": "active"}
{"Molecule": "O=C1C(N(CO)C(=O)NCO)N(CO)C(=O)N1CO (configuration not stated)", "Class": "inactive"}
{"Molecule": "CCCCCCCCCCCCCCCC[N+](C)(C)CC", "Class": "active"}
{"Molecule": "CC(C)c1ccc(C=O)cc1", "Class": "inactive"}
{"Molecule": "CCN(Cc1cccc(S(=O)(=O)O)c1)c1ccc(C(=C2C=CC(=[N+](CC)Cc3cccc(S(=O)(=O)[O-])c3)C=C2)c2ccccc2)cc1", "Class": "inactive"}
{"Molecule": "CCN(CCO)c1cccc(C)c1", "Class": "inactive"}
{"Molecule": "[Cl][In]([Cl])[Cl]", "Class": "inactive"}
{"Molecule": "[Cl][Nd]([Cl])[Cl]", "Class": "inactive"}
{"Molecule": "c1ccc2c(c1)ccc1cc3c(ccc4ccccc43)cc12", "Class": "inactive"}
{"Molecule": "CCOCC(=O)O", "Class": "inactive"}
{"Molecule": "O=c1c2ccccc2nnn1CCl", "Class": "inactive"}
{"Molecule": "C=C[Si](C)(C)O[Si](C)(C)C=C", "Class": "inactive"}
{"Molecule": "CC=CC(F)(F)C(F)(F)C(F)(F)F", "Class": "inactive"}
{"Molecule": "C=CC(=O)OCCC(=O)O", "Class": "inactive"}
{"Molecule": "CC(=O)Nc1ccc2c(c1)Cc1cc(NC(C)=O)ccc1-2", "Class": "inactive"}
{"Molecule": "Cc1cnc(NC(=O)C2=C(O)c3ccccc3S(=O)(=O)N2C)s1", "Class": "inactive"}
{"Molecule": "CC(C)CCCCCOC(=O)CCS", "Class": "inactive"}
{"Molecule": "Nc1ccc(N=Nc2ccccc2)c(N)n1", "Class": "inactive"}
{"Molecule": "N=c1ccn2c(n1)O[C@H]1[C@H](O)[C@@H](CO)O[C@H]12", "Class": "inactive"}
{"Molecule": "CC(C)CC(O)Cc1ccccc1 (configuration not stated)", "Class": "inactive"}
{"Molecule": "C=C[C@](C)(O)CC[C@@H]1[C@@]2(C)CCCC(C)(C)[C@@H]2CC[C@@]1(C)O", "Class": "inactive"}
{"Molecule": "CCCCCCOC(=O)C(C)CC (configuration not stated)", "Class": "inactive"}
{"Molecule": "CC(=O)CC(N)=O", "Class": "inactive"}
{"Molecule": "CCCCCCCCO[C@@H]1O[C@H](CO)[C@@H](O)[C@H](O)[C@H]1O", "Class": "inactive"}
{"Molecule": "COC(=O)C1=C(C)NC(C)=C(C(=O)OCC(C)C)C1c1ccccc1[N+](=O)[O-] (configuration not stated)", "Class": "inactive"}
{"Molecule": "OCCNCc1ccccc1", "Class": "inactive"}
{"Molecule": "COC=O", "Class": "inactive"}
{"Molecule": "Nc1ccc2cc3ccccc3cc2c1", "Class": "inactive"}
{"Molecule": "Cc1ccc([N+](=O)[O-])cc1S(=O)(=O)O", "Class": "inactive"}
{"Molecule": "O=C(Nc1ccccc1SSc1ccccc1NC(=O)c1ccccc1)c1ccccc1", "Class": "active"}

* * *

- Assay Procedure: ATG_SREBP_CIS: Attagene CIS-FACTORIAL HepG2 Assay for human Sterol Regulatory Element Binding (SREBP) (AID 2282962)
- Assay Conditions: HepG2 Attagene cis-factorial SREBP reporter, mRNA; actives raise or lower the signal
Calls of active or inactive are those of the source. The calls were made as follows: active = hit-call score of the fitted dose curve at least 0.9, where 1 is the maximum; inactive = score below 0.9.
Labels: 1.0 = active, 0.0 = inactive

{"Molecule": "CNC(=S)N(C)C", "Class": 0.0}
{"Molecule": "CC(C)COC(=O)C=Cc1ccccc1", "Class": 0.0}
{"Molecule": "O=C1CCCCCN1SSN1CCCCCC1=O", "Class": 1.0}
{"Molecule": "Cc1ccc(C(C)(C)C)cc1", "Class": 0.0}
{"Molecule": "O=C(Nc1ccccc1SSc1ccccc1NC(=O)c1ccccc1)c1ccccc1", "Class": 0.0}
{"Molecule": "CC1OC1C1CCC2(C)OC2C1 (stereo unspecified)", "Class": 0.0}
{"Molecule": "CCc1c(C(=O)O)c(=O)cnn1-c1ccc(Cl)cc1", "Class": 0.0}
{"Molecule": "CC(C)c1ccc2cc(C(C)C)ccc2c1", "Class": 0.0}
{"Molecule": "CCC(CC)C(=O)O", "Class": 0.0}
{"Molecule": "C=C[C@](C)(O)CC[C@@H]1[C@@]2(C)CCCC(C)(C)[C@@H]2CC[C@@]1(C)O", "Class": 0.0}
{"Molecule": "C=C(C)c1cccc(C(C)(C)N=C=O)c1", "Class": 0.0}
{"Molecule": "O=C(Nc1ccccc1)c1ccccc1O", "Class": 0.0}
{"Molecule": "SCCc1cnccn1", "Class": 0.0}
{"Molecule": "CC(=O)OCc1ccco1", "Class": 0.0}
{"Molecule": "CC=CC(F)(F)C(F)(F)C(F)(F)F", "Class": 0.0}
{"Molecule": "CC(=O)CC(N)=O", "Class": 0.0}
